Molecular target: Cholecystokinin receptor type A (Homo sapiens, UniProt P32238)
Sequence (P32238 whole entry): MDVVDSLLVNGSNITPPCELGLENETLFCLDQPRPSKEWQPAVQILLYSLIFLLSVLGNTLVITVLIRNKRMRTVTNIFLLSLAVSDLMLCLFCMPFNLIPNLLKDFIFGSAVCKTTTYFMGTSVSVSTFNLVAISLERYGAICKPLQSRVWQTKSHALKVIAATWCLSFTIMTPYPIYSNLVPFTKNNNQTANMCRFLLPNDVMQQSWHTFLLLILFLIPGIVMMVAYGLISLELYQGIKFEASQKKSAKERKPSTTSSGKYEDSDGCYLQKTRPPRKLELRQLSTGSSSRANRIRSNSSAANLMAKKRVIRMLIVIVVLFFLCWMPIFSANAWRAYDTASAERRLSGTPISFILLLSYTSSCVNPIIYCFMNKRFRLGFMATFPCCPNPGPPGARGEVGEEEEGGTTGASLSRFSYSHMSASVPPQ
Assay: Agonist activity against human CCK1 receptor
QUANTITY KIND: EC50 (nM)

CCOc1cccc(-n2cc(C(=O)N3CCN(c4cc(C(=O)O)c5ccccc5c4)CC3)nc2-c2ccc(C)cc2F)c1 0.056
CCCOc1cccc(-n2cc(C(=O)N3CCN(c4ccc5ccccc5c4)CC3)nc2-c2ccc(C)cc2)c1 962
COc1ccc(-n2cc(C(=O)N3CCN(c4ccc5ccccc5c4)CC3)nc2-c2ccc(C)cc2)cc1 20
CCOc1cccc(-n2cc(C(=O)N3CCN(c4cc(C(=O)O)c5ccccc5c4)CC3)nc2-c2ccc(C)cc2)c1 0.094

[1] Cc1ccc(-c2nc(C(=O)N3CCN(c4cc(C(=O)O)c5ccccc5c4)CC3)cn2-c2ccc3c(c2)OCCO3)c(F)c1
[2] CCOc1cccc(-n2cc(C(=O)N3CCN(c4cnc5ccccc5c4)CC3)nc2-c2ccccc2F)c1
Exam item: Hi there, can you help? I need to know whether 1 or 2 has lower measured EC50. Label of pick, please.
Marked response: 1

[I] Cc1ccc(-c2nc(C(=O)N3CCN(c4ccc5ccccc5c4)CC3)cn2-c2cccc(OC(C)C)c2)cc1
[II] CCOc1cccc(-n2cc(C(=O)N3CCN(c4ccc5ccccc5c4)CC3)nc2-c2ccc(Cl)cc2)c1
[III] CCOc1cccc(-n2cc(C(=O)N3CCN(c4ccc5ccccc5c4)CC3)nc2-c2cccc(F)c2)c1
Exam item: Given 3 compounds, produce a descending ranking by EC50. Response format: the labels, sorted as the prompt asks.
Marked response: III, I, II

[I] CCOc1cccc(-n2cc(C(=O)N3CCN(c4ccc5ccccc5c4)CC3)nc2-c2ccccc2F)c1
[II] COc1cccc(-n2cc(C(=O)N3CCN(c4ccc5ccccc5c4)CC3)nc2-c2ccc(C)cc2)c1
Exam item: Hi there, can you help? I need to know whether I or II has lower measured EC50. Label of pick, please.
Marked response: I
(I: 6.3 nM, II: 9.6 nM)
